# Measurement Target: T1, human iRhom2, endogenously expressed (human, UniProt Q6PJF5 1-856)
# T1 sequence: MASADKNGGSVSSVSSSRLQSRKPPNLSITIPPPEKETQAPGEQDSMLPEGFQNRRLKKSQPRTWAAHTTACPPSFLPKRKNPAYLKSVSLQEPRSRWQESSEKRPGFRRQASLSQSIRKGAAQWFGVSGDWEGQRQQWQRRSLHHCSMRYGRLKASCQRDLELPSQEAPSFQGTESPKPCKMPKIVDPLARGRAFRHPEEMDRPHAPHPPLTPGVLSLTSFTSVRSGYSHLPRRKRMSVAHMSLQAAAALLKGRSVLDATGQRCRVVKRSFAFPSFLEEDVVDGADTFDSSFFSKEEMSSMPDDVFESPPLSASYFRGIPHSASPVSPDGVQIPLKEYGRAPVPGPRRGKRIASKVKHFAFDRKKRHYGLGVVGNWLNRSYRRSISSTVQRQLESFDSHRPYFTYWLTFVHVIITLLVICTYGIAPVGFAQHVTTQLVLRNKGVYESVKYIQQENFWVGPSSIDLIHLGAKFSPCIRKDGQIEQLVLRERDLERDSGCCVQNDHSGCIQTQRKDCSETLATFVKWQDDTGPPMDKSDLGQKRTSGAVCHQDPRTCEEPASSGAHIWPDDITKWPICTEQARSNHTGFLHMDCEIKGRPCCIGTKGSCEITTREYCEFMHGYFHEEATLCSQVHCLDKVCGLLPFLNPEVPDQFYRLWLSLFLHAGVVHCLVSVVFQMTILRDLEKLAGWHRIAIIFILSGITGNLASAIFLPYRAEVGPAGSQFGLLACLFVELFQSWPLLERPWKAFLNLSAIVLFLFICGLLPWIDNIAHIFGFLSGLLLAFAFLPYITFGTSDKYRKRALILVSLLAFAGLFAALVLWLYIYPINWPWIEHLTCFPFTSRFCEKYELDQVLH
# Assay Protocol: cell-based or functional assay
Reported Endpoint: PMA-induced HB-EGF release from THP-1 cells, percent inhibition, 3 µg/ml (%)
Provide the reading as a plain figure in %.

Reference set (6 entries):
| Binder | Recorded Result |
| --- | --- |
| antibody 16 (antibody, V domains shown, mouse IgG, kappa light chain; also called clone #16; purified antibody 16) VH: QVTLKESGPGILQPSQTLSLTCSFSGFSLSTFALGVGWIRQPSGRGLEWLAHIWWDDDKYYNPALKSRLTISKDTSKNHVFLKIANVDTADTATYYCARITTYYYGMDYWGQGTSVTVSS VL: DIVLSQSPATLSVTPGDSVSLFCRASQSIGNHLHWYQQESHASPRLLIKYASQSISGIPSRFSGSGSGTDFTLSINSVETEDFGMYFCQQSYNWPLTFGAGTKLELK | 71.9 |
| chimeric antibody 34 (antibody, V domains shown) VH: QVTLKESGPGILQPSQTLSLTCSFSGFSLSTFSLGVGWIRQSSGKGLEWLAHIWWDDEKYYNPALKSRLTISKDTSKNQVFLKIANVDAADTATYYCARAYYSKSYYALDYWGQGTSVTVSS VL: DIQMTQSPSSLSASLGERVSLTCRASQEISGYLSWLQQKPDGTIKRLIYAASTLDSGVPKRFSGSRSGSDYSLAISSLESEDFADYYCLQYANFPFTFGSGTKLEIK | 76.1 |
| antibody 22 (antibody, V domains shown, mouse IgG, kappa light chain; also called clone #22; purified antibody 22) VH: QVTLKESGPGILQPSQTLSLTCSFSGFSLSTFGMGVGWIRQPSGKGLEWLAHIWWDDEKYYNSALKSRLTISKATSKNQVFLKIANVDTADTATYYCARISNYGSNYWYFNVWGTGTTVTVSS VL: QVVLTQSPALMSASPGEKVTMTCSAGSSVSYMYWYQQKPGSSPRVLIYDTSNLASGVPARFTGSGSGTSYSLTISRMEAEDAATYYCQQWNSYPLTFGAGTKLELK | 77.7 |
| chimeric antibody 42 (antibody, V domains shown) VH: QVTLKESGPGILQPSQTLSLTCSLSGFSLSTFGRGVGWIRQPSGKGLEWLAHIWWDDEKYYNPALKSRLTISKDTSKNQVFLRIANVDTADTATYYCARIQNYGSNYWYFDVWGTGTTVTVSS VL: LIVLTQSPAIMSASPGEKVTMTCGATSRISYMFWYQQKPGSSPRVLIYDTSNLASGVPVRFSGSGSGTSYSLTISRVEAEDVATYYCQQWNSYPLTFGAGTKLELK | 80.8 |
| chimeric antibody 44 (antibody, V domains shown) VH: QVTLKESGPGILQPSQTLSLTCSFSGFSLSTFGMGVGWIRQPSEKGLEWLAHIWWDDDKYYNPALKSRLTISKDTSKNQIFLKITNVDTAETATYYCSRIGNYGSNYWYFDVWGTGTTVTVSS VL: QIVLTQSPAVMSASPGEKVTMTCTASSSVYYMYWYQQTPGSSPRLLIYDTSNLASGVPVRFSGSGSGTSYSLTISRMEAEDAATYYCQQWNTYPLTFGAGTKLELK | 70.7 |
| chimeric antibody 16 (antibody, V domains shown, chimeric version of clone #16, made in CHO cells, detected with anti-human IgG; also called ch16; chl6 (so in the source)) VH: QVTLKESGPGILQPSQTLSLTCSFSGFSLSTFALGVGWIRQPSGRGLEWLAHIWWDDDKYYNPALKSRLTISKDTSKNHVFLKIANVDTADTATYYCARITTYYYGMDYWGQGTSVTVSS VL: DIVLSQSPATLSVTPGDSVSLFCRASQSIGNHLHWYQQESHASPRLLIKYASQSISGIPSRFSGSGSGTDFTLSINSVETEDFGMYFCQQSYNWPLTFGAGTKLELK | 73.6 |

// next entry
For chimeric antibody 22 (antibody, V domains shown) VH: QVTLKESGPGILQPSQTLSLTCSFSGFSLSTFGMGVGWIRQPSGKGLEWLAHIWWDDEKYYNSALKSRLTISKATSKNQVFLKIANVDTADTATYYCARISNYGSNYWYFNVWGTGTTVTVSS VL: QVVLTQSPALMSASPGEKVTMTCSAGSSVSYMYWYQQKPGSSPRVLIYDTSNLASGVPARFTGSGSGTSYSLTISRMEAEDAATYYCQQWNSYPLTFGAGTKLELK the binder record lists PMA-induced HB-EGF release from THP-1 cells, percent inhibition, 3 µg/ml as 81.9
